# Test system: HEK-293T
# Test name: Incucyte cell viability with HEK293T; note: unitless GR value; below 1 slowed growth and below 0 cell loss
# Assay type: toxicity, cell-based
# Details: human, 24 h, 10 µM, compound concentration 10 uM, replicate number 1
Friendly reminder: Growth Rate below 0.5 is y, at or above is n.

Threshold test, Growth Rate < 0.5: Cc1nc(Nc2cnn(C3CCNCC3)c2)nc2c1N(C)C(=O)c1cc3ccccc3cc1N2C
n

Is Growth Rate of CN(C)C(=O)Cn1cc(-c2nc(C3(c4ccc(-c5cnc(N)nc5)cc4)CC3)no2)cn1 [BI 0153] strictly below 0.5?
n

For this compound, is Growth Rate lower than 0.5? Cc1cc(-c2cnc(N)c3c(-c4ccc5scnc5c4)csc23)n(C)n1
y

Is the reported Growth Rate for Fc1cccc(-n2cnc3c(NCc4nc5ccc(F)c(F)c5[nH]4)nc(N4CCOCC4)nc32)c1 strictly below 0.5?
y

Dear colleague, could you confirm whether Growth Rate of COc1cc(/C=C(\C#N)C(=O)Nc2nnc(C(F)(F)F)s2)ccc1OCc1ccc(C(F)(F)F)cc1C(F)(F)F falls below 0.5? Thanks.
n
